assay_details: LFS_MB_1R medulloblastoma cell growth inhibition, synergistic combos for chromothripsis tumors, cisplatin or BGB combos (AID 1671452);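 further: cells exposed for 96 hours before readout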
cond: LFS_MB_1R medulloblastoma cells, at 0.5 µM, stronger effect = higher value
The source made the active and inactive calls. No stated cut-off is given here; in the data, active means inhibition above about 80%; inactive means the rest.
test_readout: inhibition

Examples with answers:
[
  {
    "smiles_entry": "O=c1ncccn1[C@@H]1O[C@H](CO)[C@@H](O)[C@H]1O",
    "inhibition": "-27.9% (inactive)"
  },
  {
    "smiles_entry": "CCc1c2c(nc3ccc(O)cc13)-c1cc3c(c(=O)n1C2)COC(=O)[C@]3(O)CC",
    "inhibition": "74.1% (inactive)"
  }
]

In the following, a different compound is considered.
May I ask what inhibition has been recorded for O=C(Nc1ccccc1)c1ccccc1O ?
-12.4% (inactive)
